- conditions: buffer; pH 7.4; 200.0 µM
Each entry gets class 0 if its solubility kinetic stays under 20 µg/mL, and class 1 if its solubility kinetic is 20 µg/mL or above.

Some solved cases for reference:
O=C(NN1CCOCC1)c1cc(Cl)ccc1Cl :: class 1
COc1ccc(-c2cnc3n2CCCCC3)cc1 :: class 1

Q: Is solubility kinetic at least 20 µg/mL? Consider O=c1c2[nH]c3ccc(F)cc3c2ncn1CCC1=CCCCC1
A: class 0

Q: Try the molecule Cn1c(=O)n(Cc2ccccc2Cl)c2ccccc21
A: class 1

Q: Try the molecule CC(=O)c1cc(CN2CCN(CCC(C)C)C(CCO)C2)cs1 (configuration not stated)
A: class 1

Q: Try the molecule Cc1onc(-c2c(Cl)cccc2Cl)c1NC(=O)N1CCSCC1
A: class 1

Q: Try the molecule CCS(=O)(=O)N1CCC(C(=O)Nc2ccc(C(C)=O)cc2)CC1
A: class 1

###

Would you kindly list solubility kinetic for each of these molecules?
- conditions: buffer; pH 7.4; 200.0 µM

As a guide, the following entries are already answered.
COc1ccc(S(=O)(=O)N2CCN(C)CC2)cc1 :: > 40.6 µg/mL
COc1ccc(Nc2nnc(SC(C)C(=O)NC3CC3)s2)cc1 (stereo not drawn) :: > 52.6 µg/mL

// input: 4 molecules below; output: solubility kinetic for each
1. COc1ccc(C(=O)N/C(=C\c2ccco2)C(=O)OCc2ccco2)cc1
2. CCc1ccccc1NC(=S)N1CCCCCC1
3. CCc1ccccc1N1CC(C(=O)N2Cc3ccccc3CC2C(N)=O)CC1=O (stereo not drawn)
4. CC(=O)N(C)c1ccc(NC(=S)NCC(C)C)cc1

A:
["> 55.1 µg/mL", "> 39.4 µg/mL", "> 58.7 µg/mL", "> 41.9 µg/mL"]

// input: 6 molecules below; output: solubility kinetic for each
1. O=C(NCc1ccccn1)C(=O)Nc1ccccc1
2. COC(=O)c1ccc(CN2CCN(CC(C)C)C(CCO)C2)cc1 (stereo not drawn)
3. CCOC(=O)N1CCN(c2ccccc2OC)CC1
4. CCOc1ncccc1C(=O)Nc1ccc(S(=O)(=O)N2CC(C)CC(C)C2)cc1 (stereo not drawn)
5. Cc1noc(C)c1C(=O)Nc1nc(-c2ccc(F)c(F)c2)cs1
6. Cc1ccnc(NC(=O)CNC(=O)c2ccco2)c1

A:
1. > 38.3 µg/mL
2. > 50.2 µg/mL
3. > 39.6 µg/mL
4. 0.9 µg/mL
5. 4.8 µg/mL
6. > 38.9 µg/mL

// input: 6 molecules below; output: solubility kinetic for each
1. O=C(CNC(=O)[C@@H]1Cc2ccccc2CN1)NC1CCCCC1
2. CCC(=O)N1CCN=C1SCc1cccc(F)c1
3. Cc1noc(NC(=O)c2cccc(Cl)c2Cl)c1C#N
4. COC(=O)C1C(=O)c2c(C)noc2CC1(C)C (stereo not drawn)
5. CCn1c(NC(=O)c2ccccc2)nc2ccccc21
6. CCN(C(=O)CSc1nc2ccc(Cl)cc2[nH]1)C1CCS(=O)(=O)C1 (stereo not drawn)

A:
> 47.3 µg/mL
> 39.9 µg/mL
43.1 µg/mL
> 35.6 µg/mL
3 µg/mL
> 58.2 µg/mL

###

Would you kindly list solubility kinetic for each of these compounds?
- conditions: buffer; pH 7.4; 200.0 µM

As a guide, the following entries are already answered.
CC1CC(C)CN(S(=O)(=O)c2ccc(C(C)(C)C)cc2)C1 (configuration not stated) :: < 0.7 µg/mL
O=C(O)CN1CCN(Cc2ccc(F)cc2)C1=O :: > 37.8 µg/mL
O=C(C1CCC(=O)N1Cc1cccs1)N1CCOCC1 (configuration not stated) :: > 44.2 µg/mL
O=[N+]([O-])C1=CC=C2C(=NC3(CCCCC3)N2O)C1=NCCO :: > 45.9 µg/mL
Cc1cc(C)c2c(=O)cc(C(=O)NCc3ccccc3)oc2c1 :: < 0.7 µg/mL

// input: 8 compounds below; output: solubility kinetic for each
1. Cc1ccccc1OCCn1cc(C(=O)O)c2ccccc21
2. O=C(Nc1sc2c(c1C(=O)O)CCCCC2)c1ccccc1
3. Nc1nc(NCCO)nc(N2CCCCCC2)c1[N+](=O)[O-]
4. Cc1cccc(NC(=O)CN(C)C(=O)C2CC2)c1C
5. Cc1ccc(C(=O)NCc2ccc3c(c2)OCO3)cc1Cl
6. c1ccc(-c2cn(-c3ccccc3)c3ncnc(N4CCCCC4)c23)cc1
7. NCCSc1c(-c2ccc(Cl)cc2)[nH]c2ccccc12
8. COC(=O)c1cccc(-n2c(CCC(=O)O)ccc2-c2cccs2)c1

A:
1: > 44.3 µg/mL; 2: > 47.3 µg/mL; 3: > 44.4 µg/mL; 4: > 39.1 µg/mL; 5: < 0.7 µg/mL; 6: < 0.2 µg/mL; 7: > 45.4 µg/mL; 8: > 53.3 µg/mL

// input: 6 compounds below; output: solubility kinetic for each
1. CC[N+](C)(C)Cc1ccccc1Br.Cc1ccc(S(=O)(=O)[O-])cc1
2. COc1ccc(C2(C)NC(=O)N(CC3CCCCC3)C2=O)cc1 (configuration not stated)
3. O=C(c1ccc(NC(=O)C2(c3ccccc3)CCCC2)cc1)N1CCOCC1
4. Cc1ccc(CN(C)CC(=O)NC(C)c2ccccc2)cc1 (configuration not stated)
5. CN(CC(=O)NC1CC1)S(=O)(=O)c1ccc(F)cc1
6. O=C(O)/C=C/C(=O)c1c(-c2ccccc2)[nH]c2ccccc12

A:
["> 62.2 µg/mL", "> 47.5 µg/mL", "> 56.8 µg/mL", "> 44.5 µg/mL", "> 42.9 µg/mL", "> 43.7 µg/mL"]

// input: 3 compounds below; output: solubility kinetic for each
1. COc1cccc(NC(=O)COc2ccccc2)c1
2. CCNC(=S)NNC(=O)c1nn(C)c(C)c1Cl
3. CC(C)(C)n1cnnc1Sc1ncccc1[N+](=O)[O-]

A:
> 38.6 µg/mL
> 41.4 µg/mL
> 41.9 µg/mL

###

- conditions: buffer; pH 7.4; 200.0 µM
Would you kindly list solubility kinetic for each of these compounds?

As a guide, the following entries are already answered.
O.O=C([O-])c1ccn2c(C(=O)c3ccccc3)c(-c3ccccc3)cc2c1 :: > 52.4 µg/mL
Cc1oc(C(C)(C)C)cc1C(N)=O :: > 27.2 µg/mL

// input: 3 compounds below; output: solubility kinetic for each
1. O=c1c(Cc2c(F)cccc2Cl)c(O)ccn1C1CC1
2. CCN(CC)C(=O)c1ccc(NC(=O)COc2ccccc2F)cc1
3. CCN(CCNC(=O)c1ccc(C#N)cc1)c1cccc(C)c1

A:
1. > 44.1 µg/mL
2. > 51.7 µg/mL
3. > 46.1 µg/mL

###

- conditions: buffer; pH 7.4; 200.0 µM
Would you kindly list solubility kinetic for each of these compounds?

Cc1cc(C(=O)NC2CCCCC2)on1 :: > 31.2 µg/mL
CC(OC(=O)CN1C(=O)C2C3C=CC(C4CC34)C2C1=O)C(=O)c1ccccc1 (centres undefined) :: > 56.9 µg/mL
CN(CC(=O)NCCCN1CCOCC1)S(=O)(=O)c1ccc(Cl)cc1 :: > 58.5 µg/mL

Here is the next item to consider.
Q: Any idea what solubility kinetic was measured for C/C(=N\Nc1nc(C)cc(C)n1)c1ccc(N2CCOCC2)cc1 ?
A: > 48.8 µg/mL

###

- conditions: buffer; pH 7.4; 200.0 µM
Would you kindly list solubility kinetic for each of these compounds?

As a guide, the following entries are already answered.
CC(C)Oc1ccc(C(CC(=O)N2CCOCC2)C(C)C)cc1 (stereo not drawn) :: > 47.9 µg/mL
O=C(O)c1c(NC(=O)N2CCOCC2)sc2c1CCCC2 :: > 46.6 µg/mL
CCCNC(=O)C/C(C)=N/NC(=O)C(=O)Nc1ccccn1 :: > 45.8 µg/mL
Cc1cc(/C=C(\C#N)C(=O)NCc2ccccc2)cc(C)c1O :: < 0.3 µg/mL
CC(C)(C)NS(=O)(=O)c1ccc(/C=C/C(=O)O)cc1 :: > 42.5 µg/mL
Cc1cc(C(=O)Nc2ccc(Cl)cc2)c2ccccc2n1 :: < 0.3 µg/mL
Cc1ccc(NC(=O)c2ccc([N+](=O)[O-])o2)c(C)c1 :: > 39 µg/mL
CC(=O)C1=C(O)C(=O)N(c2ccc(O)cc2)C1c1ccccc1 (stereo not drawn) :: > 46.4 µg/mL

// input: 3 compounds below; output: solubility kinetic for each
1. NC1=NC(=O)C(Cc2ccc(OC(F)(F)F)cc2)S1 (stereo not drawn)
2. COC(=O)c1ccccc1NC(=O)CSc1ncccn1
3. Cc1ccc(OCc2cc(C(=O)N3CCCC3)no2)cn1

A:
1. > 43.5 µg/mL
2. > 45.5 µg/mL
3. > 43.1 µg/mL

// input: 2 compounds below; output: solubility kinetic for each
1. O=c1[nH]c(/C=C\c2ccccc2F)nc(O)c1[N+](=O)[O-]
2. CN1C(=O)C(c2ccc([N+](=O)[O-])cc2[N+](=O)[O-])C(=O)N(C)C1=O

A:
["> 41.6 µg/mL", "> 48.3 µg/mL"]
